Experiment: molar heat capacity at constant pressure
Details: 288.15 K; 101.33 kPa; Liquid; Small sample (50 mg) DSC
Reported molar heat capacity at constant pressure values follow for various compounds

{"columns": ["compound", "molar heat capacity at constant pressure (J/K/mol)"],
 "data": [
  ["CCCCCCO", 231.6],
  ["C[S+](C)[O-] [dimethyl sulfoxide]", 147.8],
  ["CCCCCCCCO", 294.2],
  ["CCCO", 139],
  ["CCO", 108.8],
  ["CCCCO", 166.2],
  ["CO", 78.1],
  ["CCCCCCCCCCO", 360.1]
]}

* * *

Assay: molar heat capacity at constant pressure
Conditions: 313.15 K; 101.33 kPa; Liquid; Small sample (50 mg) DSC

{"columns": ["compound", "molar heat capacity at constant pressure (J/K/mol)"],
 "data": [
  ["CCCCCCCCO", 319.5],
  ["CCO", 121.6],
  ["CCCCO", 186.6],
  ["CCCCCCO", 256.2],
  ["CO", 85.6],
  ["CCCO", 153.7],
  ["CCCCCCCCCCO", 390.6],
  ["C[S+](C)[O-] [dimethyl sulfoxide]", 155.4]
]}

* * *

Experiment: molar heat capacity at constant pressure
Conditions: 308.15 K; 101.33 kPa; Liquid; Small sample (50 mg) DSC
Reported molar heat capacity at constant pressure values follow for various compounds
observable: molar heat capacity at constant pressure (J/K/mol)

{"columns": ["compound", "observed-measurement"],
 "data": [
  ["C[S+](C)[O-] [dimethyl sulfoxide]", 153.4],
  ["CCCCO", 182.8],
  ["CCCO", 151],
  ["CCCCCCCCO", 314.4],
  ["CCCCCCCCCCO", 385.3],
  ["CCO", 118.6],
  ["CCCCCCO", 251],
  ["CO", 83.4]
]}

* * *

Reported molar heat capacity at constant pressure values follow for various molecules
Assay: molar heat capacity at constant pressure
Details: 303.15 K; 101.33 kPa; Liquid; Small sample (50 mg) DSC
observable: molar heat capacity at constant pressure (J/K/mol)

{"columns": ["molecule", "unit-label", "observed-measurement"],
 "data": [
  ["CCCCO [butan-1-ol]", "J/K/mol", 178.9],
  ["C[S+](C)[O-] [dimethyl sulfoxide]", "J/K/mol", 152.4],
  ["CO [methanol]", "J/K/mol", 82.2],
  ["CCCCCCCCO [octan-1-ol]", "J/K/mol", 309.2],
  ["CCCO [propan-1-ol]", "J/K/mol", 148.3],
  ["CCO [ethanol]", "J/K/mol", 115.7],
  ["CCCCCCCCCCO [decan-1-ol]", "J/K/mol", 379.3],
  ["CCCCCCO [hexan-1-ol]", "J/K/mol", 246]
]}

* * *

Experiment: molar heat capacity at constant pressure
Details: 293.15 K; 101.33 kPa; Liquid; Small sample (50 mg) DSC

{"columns": ["compound", "unit-label", "molar heat capacity at constant pressure"],
 "data": [
  ["CCO [ethanol]", "J/K/mol", 111],
  ["C[S+](C)[O-] [dimethyl sulfoxide]", "J/K/mol", 149.4],
  ["CCCCO [butan-1-ol]", "J/K/mol", 171.8],
  ["CCCCCCCCO [octan-1-ol]", "J/K/mol", 300.3],
  ["CCCO [propan-1-ol]", "J/K/mol", 142.3],
  ["CCCCCCO [hexan-1-ol]", "J/K/mol", 237.5],
  ["CO [methanol]", "J/K/mol", 79.3],
  ["CCCCCCCCCCO [decan-1-ol]", "J/K/mol", 368.5]
]}
